- ASSAYED TARGET: Gag-Pro polyprotein (Human T-cell leukemia virus 1 (strain Japan ATK-1 subtype A) (HTLV-1), UniProt P10274, L40I)
- Sequence (P10274 450-574 L489I): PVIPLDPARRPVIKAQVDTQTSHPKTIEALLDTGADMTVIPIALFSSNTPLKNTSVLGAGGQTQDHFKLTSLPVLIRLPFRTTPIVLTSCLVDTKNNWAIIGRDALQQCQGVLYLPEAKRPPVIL
- EXPERIMENTAL PROTOCOL: Inhibition of HTLV1 protease L40I mutant expressed in Escherichia coli BL21(DE3)pLysS
*1 amine or outer side, *2 acyl side, *3 side chain or, on linkers, in order; H or OH if unused. Where a SMILES comes first, the peptide text is derived from it. [ ]: non-standard residue; d: D form. X1 = O=C([C@@H](O)[C@H](Cc1ccccc1)N[*:1])[*:2]; Thz(5,5-Me2) = CC1(C)SCN[C@@H]1C(=O)O
QUANTITY: IC50 (nM)

INSERT INTO results (molecule, units_label, quantitative_readout) VALUES
  ('CSCC[C@H](NC(=O)[C@@H](NC(=O)[C@H]1N(C(=O)[C@@H](O)[C@H](Cc2ccccc2)NC(=O)[C@@H](NC(=O)[C@H](CCC(N)=O)NC(=O)[C@@H]2CCCN2)C(C)C)CSC1(C)C)C(C)C)C(=O)N[C@@H](Cc1cnc[nH]1)C(=O)O (H-PQV[X1][Thz(5,5-Me2)]VMH-OH)', 'nM', 152),
  ('CSCC[C@H](NC(=O)[C@@H](NC(=O)[C@@H]1CCCN1C(=O)[C@@H](O)[C@H](Cc1ccccc1)NC(=O)[C@@H](NC(=O)[C@H](CCC(N)=O)NC(=O)[C@@H]1CCCN1)C(C)C)C(C)C)C(=O)N[C@@H](Cc1cnc[nH]1)C(=O)O (H-PQV[X1]PVMH-OH)', 'nM', 159),
  ('CC[C@H](C)[C@H](NC(C)=O)C(=O)N[C@H](C(=O)N[C@H](Cc1ccccc1)[C@H](O)C(=O)N1CSC(C)(C)[C@@H]1C(=O)N[C@H](C(=O)N[C@@H](CCSC)C(N)=O)[C@@H](C)CC)[C@@H](C)CC', 'nM', 180),
  ('CC[C@H](C)[C@H](NC(C)=O)C(=O)N[C@H](C(=O)N[C@@H](Cc1ccccc1)[C@H](O)C(=O)N1CSC(C)(C)[C@@H]1C(=O)N[C@H](C(=O)N[C@@H](CCSC)C(N)=O)C(C)(C)C)[C@@H](C)CC', 'nM', 180);

Recorded values, source ChEMBL document CHEMBL1141611.
